test system: IGROV1 ovarian; assay: NCI tumour cell line growth inhibition, 48 h
measurement-name: log10 of TGI (log10 of the value in µM)
Please be aware that the numbers have been log10-transformed from TGI in µM.

Consider the following illustrative entries.
- compound: "Cn1c2c(c3ccccc31)CCN(CCCN1CCN(c3cccc(Cl)c3)CC1)C2=O"
  log10 of TGI: 1.82
- compound: "CN1C(=O)C23CC4(C56CC78SSC(CO)(C(=O)N7C5Nc5ccccc56)N(C)C8=O)c5ccccc5NC4N2C(=O)C1(CO)SS3 (stereo unspecified)"
  log10 of TGI: -0.55
- compound: "CCNC(=O)OCC1C2=C(C(=O)C(C)=C(N)C2=O)N2CC3C(N3C)C12OC (stereo unspecified)"
  log10 of TGI: 1.89
- compound: "COc1ccc2[nH]c(=O)c(/C=C/C(=O)c3ccccc3OC)cc2c1"
  log10 of TGI: 1.23
- compound: "COC(=O)CCC1=C(C)C(C)=N/C1=C\\c1[nH]c(-c2ccc[nH]2)cc1OC"
  log10 of TGI: 1.24
- compound: "O=C(c1cccs1)c1c(C(F)(F)F)n([O-])c2ccc(Cl)cc2[n+]1=O"
  log10 of TGI: 0.22

Field: next compound
INPUT: For the compound shown here, `c1ccc(-c2nc([P+](c3ccccc3)(c3ccccc3)c3ccccc3)c(N3CCOCC3)o2)cc1` , give the reported log10 of TGI.
OUTPUT: 0.92

---

system: UACC-257 melanoma; experiment: NCI tumour cell line growth inhibition, 48 h
A collection of compounds and their measured TGI

The following compounds have reported results that may help.
- compound: "COC(=O)CC(=O)OC"
  TGI: "> 100 µM"
- compound: "Oc1ccc(Cl)cc1-c1cc(-c2ccc(Cl)cc2)n[nH]1"
  TGI: "37.7 µM"
- compound: "O=C1C=C2C(=CCOC2O)O1 (stereo unspecified)"
  TGI: "3.85 µM"
- compound: "O=c1[nH]c2c3ccncc3cc(-c3cccc(Cl)c3)c2c2cnccc12"
  TGI: "> 100 µM"
- compound: "COC(=O)C1(C(=O)OC)N=C(C)OC1c1ccoc1 (stereo unspecified)"
  TGI: "> 100 µM"

INPUT: Enter reported TGI observed with UACC-257 melanoma for `CC(C)CC(=O)[O-].CC(C)CC(=O)[O-].N.N.N.N.[Co+3].[O-][Cl+3]([O-])([O-])O.[O-][Cl+3]([O-])([O-])[O-]`
OUTPUT: > 100 µM

---

system: OVCAR-4 ovarian; assay: NCI tumour cell line growth inhibition, 48 h; in the data active = GI50 below about 0.43 µM; inactive = the rest
Give your call using only these classes: true (1) (active), false (0) (inactive)

Reference set, count: 5
- compound: "Clc1ccc(-c2nc(-c3ccccc3)cn3ccnc23)cc1"
  label-value: "false (0)"
- compound: "CCOC(=O)C#Cc1c(C(=O)OCC)nnn1Cc1ccc(C(F)(F)F)cc1"
  label-value: "false (0)"
- compound: "N=C(N)c1ccc(-c2ccc(-c3cccs3)o2)cc1"
  label-value: "false (0)"
- compound: "COc1cccc(-n2ncc3c(N/N=C/c4cccc(F)c4)ncnc32)c1"
  label-value: "false (0)"
- compound: "C/C(=C\\COc1ccc2ccc(=O)oc2c1)C1=CC(=O)C(C)(C)O1"
  label-value: "false (0)"

INPUT: // outcome(item) with item = `C=C(C)[C@@H]1CC[C@]2(C)[C@H](CC[C@@H]3[C@@H]([C@@](C)(O)CCC=C(C)C)CC[C@]32C)[C@@]1(C)CCC(=O)N1CCN(C)CC1`
OUTPUT: false (0)

INPUT: Which outcome did this test record for the compound COC(=O)C12OCC34C(CC5C(C)=C(O)C(=O)CC5(C)C3C(O)C1O)OC(=O)C(OC(=O)C=C(C)C)C24 (centres undefined) ?
OUTPUT: false (0)

INPUT: Hi, sorry to bother you, what did the test record for `CCN1CCN(Cc2ccc(NC(=O)c3nc4ccc5[nH]ncc5c4c4c3CCCC4)cc2C(F)(F)F)CC1` ?
OUTPUT: false (0)

INPUT: What did this assay record as the result for CN1C(=O)C23CC4(C56CC78SSC(CO)(C(=O)N7C5Nc5ccccc56)N(C)C8=O)c5ccccc5NC4N2C(=O)C1(CO)SS3 (centres undefined) ?
OUTPUT: true (1)

Cited source: PubChem BioAssay (NCI)
